// provenance: the nanobody polyreactivity screen of Harvey et al. (2022)

PROTOCOL_SUMMARY: yeast display, Sf9 membrane polyspecificity reagent, FACS + sequencing; frameworks hold sequencing errors
MEASUREMENT_LABEL: polyreactivity (PSR sort gate)

Solved entries (count: 6):
SEQUENCE_STRING	polyreactivity (PSR sort gate)
QVQLVESGGGIVQAGGRLRKSCAASGRTFDSNAMGWYRQAPGKERELVAGISESGGSTYYADSVKGRFTISRDNAKNTVYLQMNSLKPEDTAVYYCDYSGITVYYHRAVDFIVSYDYWGQGTQVTVSS	low polyreactivity
QVQLVESGGGLVQAGGSLRLSCAASGSIFEQYTMGWYRQAPGKERELVAAISRRSGRTYYADSVKGRFTISRDNAKNTVYLQMNRLKPEDTAVYYCNTVYYGNFYSTRYDYWGQGTQVTVSS	high polyreactivity
QVQLVESGGGLVQAGGSLRLSCAASGFIFAYYAMGWYRQAPGKERELVARITRGGRTYYADSVKGRFTISRDNAKNTVYLQMNSLKPEDTAVYYCATTGSSYFHSFEYDYWGQGTQVTVSS	low polyreactivity
QVQRVESGGGLVQAGGSLRLSCAASGIIFDRYAMGWYRPAPGKERELVAAISSSGGSTYYADSVKGRFTISRDNAKNTVYLQMISLKPEATAVYYCNARHRQWARGYWGQGTQVTVSS	high polyreactivity
QVQLVESGGGLVQAGGSLRLSCAASGRIFRSYAMGWYRQAPGKERELVAAISQRGGRTYYADSVKGRFTISRDNAKNTVYLQMNSLKPEDTAVYYCAKSNPKLGYYYLQGDLYDYWGQGTQVTVSS	low polyreactivity
QVQLVESGGGLVQAGGSLRLSCAASGRIFPTYAMGWYRQAPGKERELVAGITSGGRTNYADSVKGRFTISRDNAKNTVYLQMNSLKPEDTAVYYCATVSQQSRSLGIDRIYYWGQGTQVTVSS	high polyreactivity

**Query** Recall and state the measured polyreactivity (PSR sort gate) for QVQLVESGGGLVQAGGSLRLTCAASGSTFWDNTMGWYRQAPGKDRELVAGITGGGNTKYADSVKGRFTISRDNAKNTVYLQMNSLKPEDTAVYYCAAERLRGYRGVRGYYGYYYWGQGTQVTVSS .
**Result** high polyreactivity

**Query** Recall and state the measured polyreactivity (PSR sort gate) for QVQLVESGGGLVQAGGSLRLSCAASGFIFFRNAMGWYRQAPGKERELVAAISGSGGSTYYADSVKGRFTISRDNAKNTVYLQLNSLKPEDTAVYYCAAAGPFNYDYWGQGTHVTVSS .
**Result** high polyreactivity

====

PROTOCOL_SUMMARY: yeast display, Sf9 membrane polyspecificity reagent, FACS + sequencing; frameworks hold sequencing errors
MEASUREMENT_LABEL: polyreactivity (PSR sort gate)

Solved entries (count: 5):
SEQUENCE_STRING	polyreactivity (PSR sort gate)
QVQLVESGGGLVQAGGSLRLSCAASGRTVAPYAMGWYRPAPGKERELVAGITYRTGNTYYADSVKGRFTISRDNAKNTVYLQMNSLKPEDTAVYYCAAYSGYYRPRYNFWGQGTQVNVSS	high polyreactivity
QDQLVESGGGLVQAGGSLRLSCAASGRTFYQYAMGWYRQAPGKERELVAAITFRGGSTNYADSVKGRFTISRDNAKNTVYLQMNSLKPEDTAVYYCAATVYGTVYKGRSQYEYGYWGQGTQVTVSS	high polyreactivity
QVQLEESGGGLVQAGGSLRLICAASGCIFEYNAMGWSRQAPRKEREFVAAINNSGGRTYYADSVKGRFTISRDNANNTVYLQMNSLKPEDTAVYYCAVYSYYRRTYRREMDYWGQGTQVTVSS	high polyreactivity
QVQLQESGGGLVQAGGSLRLSCAASGSIFVSVTMGWYRQAPGKERELGASIGRGSTTNHADSVKGRFTISRDNAKNIVYLLMNSLKPEDTAVYYCAALESYGKYHGYWGQGTLVTVSS	low polyreactivity
QVQLVESGGGLVQAGGSLRLSCAASGRTLYGYAMGWYRQAPGKERELVARITGRDGSTDYADSVKGRFTISRDNAKNTVYLQMNSLKPEDTAVYYCNARVRFHWYRSDYWGQGTQVTVSS	high polyreactivity

**Query** Recall and state the measured polyreactivity (PSR sort gate) for QVQLVESGGGLVQAGGSLRLSCAASGSIFSYYDMGWYRQAPGKERELVAAIRWSGGITYADSVKGRFTISRDNAKNTVYLEMNSLKPEDTAVYYCAADQYYRSDYYYWGQGTQVTVSS .
**Result** low polyreactivity

**Query** Recall and state the measured polyreactivity (PSR sort gate) for QVQLVESGGGLVQAGGSLRLSCAASGFTFGRNAMGWYRQAHGKERELVASIDWSGGSTYYADSVKGRFTISRDNAKNTFYLQMNTLKPEDTAVYYCAVGPNSVGNRSYGFDYWGQGTQVTLSS .
**Result** low polyreactivity

**Query** Recall and state the measured polyreactivity (PSR sort gate) for HVQLQESGGGLMQAGGSQRLSCAASGSISYNSDMGWYRQAPGKEREFVAGIGYGTTTNYADSVKGRFTTSRDNAKNTVYLQMISMKPEDTEVYYCAAYQGNGYEFYYWGQGTQVTVRS .
**Result** low polyreactivity

**Query** Recall and state the measured polyreactivity (PSR sort gate) for QVQLVESVGGLVQAGGSLRLSCAASGGTFKTNAMGWYIQAPGKERELVAAITGSGTSTYYADSVKGRFTISRDNAKNTVYLQMNSLKPEDTAVYYCAADKLYQPGIGDDYWGQGNQVTVSS .
**Result** low polyreactivity

**Query** Recall and state the measured polyreactivity (PSR sort gate) for QVQLVESGGGLVQAGGSLRLSCAASGFIFYKYAMGWYRQAPGKERELVARISISGGRTYYADSVKGRFTISRDNAKNTVYLQMNSLKPEDTAVYYCATSPWWYGYAAYGMDYWGQGTQVTVSS .
**Result** low polyreactivity

**Query** Recall and state the measured polyreactivity (PSR sort gate) for QVQLVESGGGLVQAGGSLRLSCAASGRIFQRYAMGWYRPAPGKERELVAAISSRGGRTFYADSVKGRFTISRDNAMYSVYLQMNSLKPEDSAAYYCAATATVGSVTFDYWGQGTQVSVSS .
**Result** high polyreactivity

====

PROTOCOL_SUMMARY: yeast display, Sf9 membrane polyspecificity reagent, FACS + sequencing; frameworks hold sequencing errors

SEQUENCE_STRING	polyreactivity (PSR sort gate)
QVQLVESGGGLVQAGGSLRLSCAASGRILYQYAMAWYRQAPGKERELVASISGRSGRTRYADSVKGRFTISRDNAKNTVYLQMNSLKPEDTAVYYCNAGSSVLKYDYWGQGTQVTVSS	low polyreactivity
QVQLVESGGGLVQAGGSLRLSCAASGRIFYYYDMGWYRQAPGNERELVAGINDDSSTYYADSVKGRFTISRDNAKNTVYLQMNSLKPEDTAVYYCNAGPSWYPCWYYYWGQGTQVTVSS	low polyreactivity
QVQLVESVGGLVQAGGSLRLSCSASGSIIYSYAMGWYRQAPGKERELVADITTGGGSTYYADSVKGRFTISRDNAKNTVYLQMNSLKPEDTAVYYCAAEQDTVWFLWIVDYCGQGTQVTVSS	low polyreactivity

====

PROTOCOL_SUMMARY: yeast display, Sf9 membrane polyspecificity reagent, FACS + sequencing; frameworks hold sequencing errors
MEASUREMENT_LABEL: polyreactivity (PSR sort gate)

SEQUENCE_STRING	VAL
QVQLVESGGGLVQAGGSLRLSCAASGRTFSSYAMGWYRQAPGKERELVASISKSGGSTSYADSVKGRFTISRDNAKNTVYLQMNSLKPEDTAVYYCNARLDYSTYESSPVTRKRYYWGQGTQVTVSS	low polyreactivity
QVQLVESGGGLVQAGGSLRLSCAASGFTFKKYAMGWYRQAPGKERELVAAISSSGGRTTYADSVKGRFTISRDNAKNTVYLQMNSLKPEDTAVYYCNADRYTAVRAYDYWGQGTQVTVSS	low polyreactivity

====

PROTOCOL_SUMMARY: yeast display, Sf9 membrane polyspecificity reagent, FACS + sequencing; frameworks hold sequencing errors
MEASUREMENT_LABEL: polyreactivity (PSR sort gate)

Solved entries (count: 4):
SEQUENCE_STRING	polyreactivity (PSR sort gate)
QVQLVESGGGLVQAGGSLRLSCAASGSTFYYNAMGWYRQAPGKERELVARISRSGGSTYADSVKGRFTISRDNAKNTVYLQMNSLKPEDTAVYYCNADAYGTPEFTSYAVRYDYWGQGTQVNVSS	low polyreactivity
QVQLVESGGGLVQAGGSLRLSCAASGSIFRWNAMGWYRQAPGKERELVAGIRWDSGSTYYADSVKGRFTISRDNAKNTVYLQMNSLKPEDTAVYYCAADLFDFLLIDGFAVVTYGYWGQGTQVNVSS	low polyreactivity
QVQLVESGGGLVQAGGSLRLSCAASGTFSYYAMGWYIQAPGKERELVATIRSGGRTYYADSVKGRFTISRDNAKNTVYLQMNSLKPEDTAVYYCAKTGFLGLRQYGYWGQGTRVTVSS	high polyreactivity
QVQLEESGGGLVQAGGSLRLTCAASGRNFTYYAMGWSIQAPGNEREIVAAISSSGGSTSYADSVKGRFTISRDNAKNTVYLQMNSLKPEDTAVYYCAAVTRDYGSRSGLDYWGQGTQVTVSS	high polyreactivity

**Query** Recall and state the measured polyreactivity (PSR sort gate) for QVQLVDSGGGLVQAGCSIRITCSATGITFVANTKGWYRQEPVKERELVDTITSSGGSTYYADSVKGRFTISRDNAKNSVYLQMNSLKPEDTAVFYCAASDLRYRGNYVYLPSEYWGQGSQVTVSS .
**Result** low polyreactivity
